Reported log10 fold difference in affinity vs original is given for each of the following binders.
STUDY SYSTEM: binding partner of C5A (XPA23)
ASSAY NAME: Biacore K-off
PROPERTY NAME: log10 fold difference in affinity vs original (log10 of the value in fold)

1) C5A (XPA23) VL H49Y (antibody, V domains shown) VH: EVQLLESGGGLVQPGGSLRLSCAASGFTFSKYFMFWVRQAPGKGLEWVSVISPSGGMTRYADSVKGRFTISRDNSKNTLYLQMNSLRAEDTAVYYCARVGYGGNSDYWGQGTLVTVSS VL: DIQMTQSPSSVSASVGDRLTIICRASQDINRWLAWYQQTPGNAPKLLIYSATSLQSGVPSRFSGSGSGTDFTLTINSLQPEDFATYYCQQADSFPLTFGGGTKVEIK | -0.28
2) C5A (XPA23) VL R31W (antibody, V domains shown) VH: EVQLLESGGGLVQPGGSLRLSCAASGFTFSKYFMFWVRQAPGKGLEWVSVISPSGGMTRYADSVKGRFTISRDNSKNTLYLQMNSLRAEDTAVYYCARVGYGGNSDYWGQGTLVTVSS VL: DIQMTQSPSSVSASVGDRLTIICRASQDINWWLAWYQQTPGNAPKLLIHSATSLQSGVPSRFSGSGSGTDFTLTINSLQPEDFATYYCQQADSFPLTFGGGTKVEIK | -0.37
3) C5A (XPA23) VL T52A (antibody, V domains shown) VH: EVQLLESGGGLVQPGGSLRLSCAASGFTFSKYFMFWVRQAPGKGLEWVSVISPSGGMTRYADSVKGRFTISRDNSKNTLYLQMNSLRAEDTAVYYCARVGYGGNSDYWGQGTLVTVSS VL: DIQMTQSPSSVSASVGDRLTIICRASQDINRWLAWYQQTPGNAPKLLIHSAASLQSGVPSRFSGSGSGTDFTLTINSLQPEDFATYYCQQADSFPLTFGGGTKVEIK | -0.18
4) C5A (XPA23) VL R31A (antibody, V domains shown) VH: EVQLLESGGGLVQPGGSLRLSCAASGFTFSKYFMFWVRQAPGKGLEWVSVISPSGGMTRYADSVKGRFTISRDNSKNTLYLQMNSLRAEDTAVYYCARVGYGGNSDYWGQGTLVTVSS VL: DIQMTQSPSSVSASVGDRLTIICRASQDINAWLAWYQQTPGNAPKLLIHSATSLQSGVPSRFSGSGSGTDFTLTINSLQPEDFATYYCQQADSFPLTFGGGTKVEIK | 0.93
5) C5A (XPA23) VL D28Y (antibody, V domains shown) VH: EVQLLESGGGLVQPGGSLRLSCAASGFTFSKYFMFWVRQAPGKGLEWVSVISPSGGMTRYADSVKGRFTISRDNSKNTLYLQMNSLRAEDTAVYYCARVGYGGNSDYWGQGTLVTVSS VL: DIQMTQSPSSVSASVGDRLTIICRASQYINRWLAWYQQTPGNAPKLLIHSATSLQSGVPSRFSGSGSGTDFTLTINSLQPEDFATYYCQQADSFPLTFGGGTKVEIK | 0.16
